Origin of the recorded values: ChEMBL document CHEMBL1909046

- assay: DRUGMATRIX: Calcium Channel Type L, Benzothiazepine radioligand binding (ligand: [3H] Diltiazem)
- Format: cell membranes, Rattus norvegicus, Wistar, Brain, Membrane
- settings: Not Active = under 50% inhibition at 10 µM
experimental-endpoint: IC50

// worked examples, IC50 included
| compound | experimental-endpoint | observed-value |
| --- | --- | --- |
| CCC1(C)CC(=O)NC1=O (stereo not given) [ETHOSUXIMIDE] | IC50 | Not Active |
| C=CCc1ccc(O)c(OC)c1 | IC50 | Not Active |
| C[C@H]1O[C@@H](n2cc(F)c(=O)[nH]c2=O)[C@H](O)[C@@H]1O | IC50 | Not Active |
| CC(C)NCC(O)c1ccc(O)c(O)c1 (stereo not given) | IC50 | Not Active |
| NC(=O)C[S+]([O-])C(c1ccccc1)c1ccccc1 (stereo not given) | IC50 | Not Active |
| O=C1CN=C(c2ccccc2Cl)c2cc([N+](=O)[O-])ccc2N1 | IC50 | Not Active |

[in] Kindly indicate its recorded IC50. Item: CC(C(=O)O)c1cccc(Oc2ccccc2)c1 (stereo not given)
[out] Not Active

[in] Kindly indicate its recorded IC50. Item: O=c1cnn([C@@H]2O[C@H](CO)[C@@H](O)[C@H]2O)c(=O)[nH]1
[out] Not Active

[in] Kindly indicate its recorded IC50. Item: C[C@@H]1C[C@H]2[C@@H]3CCC4=CC(=O)C=C[C@]4(C)[C@@]3(F)[C@@H](O)C[C@]2(C)[C@@]1(O)C(=O)CO
[out] Not Active

[in] Kindly indicate its recorded IC50. Item: Cc1nnc2n1-c1ccc(Cl)cc1C(c1ccccc1)=NC2
[out] Not Active

[in] Kindly indicate its recorded IC50. Item: O=C(O)CCNC(=O)c1ccccc1
[out] Not Active

[in] Kindly indicate its recorded IC50. Item: CC(=O)O[C@H]1C(=O)[C@@]2(C)[C@H]([C@H](OC(=O)c3ccccc3)[C@]3(O)C[C@H](OC(=O)[C@H](O)[C@@H](NC(=O)c4ccccc4)c4ccccc4)C(C)=C1C3(C)C)[C@]1(OC(C)=O)CO[C@@H]1C[C@@H]2O
[out] Not Active

###

- target-or-system: UniProt:P25101
- Sequence (P25101 whole entry): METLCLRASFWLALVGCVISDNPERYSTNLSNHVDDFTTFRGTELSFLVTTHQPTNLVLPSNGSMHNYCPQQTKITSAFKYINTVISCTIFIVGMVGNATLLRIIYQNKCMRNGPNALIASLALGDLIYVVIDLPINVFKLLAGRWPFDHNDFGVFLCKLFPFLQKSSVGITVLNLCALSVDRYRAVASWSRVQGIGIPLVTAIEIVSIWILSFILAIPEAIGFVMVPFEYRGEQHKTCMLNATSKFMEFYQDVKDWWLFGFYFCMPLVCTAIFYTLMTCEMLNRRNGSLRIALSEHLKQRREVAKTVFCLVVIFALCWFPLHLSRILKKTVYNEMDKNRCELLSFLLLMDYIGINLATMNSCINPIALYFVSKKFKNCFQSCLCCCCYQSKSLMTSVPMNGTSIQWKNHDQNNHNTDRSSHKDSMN
- Format: cell membranes, Membrane
- settings: cho-k1
experimental-endpoint: IC50

| compound | observed-value |
| --- | --- |
| Cc1cccc(C)c1OCC(C)N (stereo not drawn) | Not Active |
| Fc1ccc(C(c2ccc(F)cc2)N2CCN(C/C=C/c3ccccc3)CC2)cc1 | Not Active |
| Cn1c(=O)c2c(ncn2CC(O)CO)n(C)c1=O (stereo not drawn) | Not Active |

###

- target-or-system: 5-hydroxytryptamine receptor 6 (Homo sapiens, UniProt P50406); further: in other assays of this panel Not Active means under 50% inhibition at 10 µM
- Sequence (P50406 whole entry): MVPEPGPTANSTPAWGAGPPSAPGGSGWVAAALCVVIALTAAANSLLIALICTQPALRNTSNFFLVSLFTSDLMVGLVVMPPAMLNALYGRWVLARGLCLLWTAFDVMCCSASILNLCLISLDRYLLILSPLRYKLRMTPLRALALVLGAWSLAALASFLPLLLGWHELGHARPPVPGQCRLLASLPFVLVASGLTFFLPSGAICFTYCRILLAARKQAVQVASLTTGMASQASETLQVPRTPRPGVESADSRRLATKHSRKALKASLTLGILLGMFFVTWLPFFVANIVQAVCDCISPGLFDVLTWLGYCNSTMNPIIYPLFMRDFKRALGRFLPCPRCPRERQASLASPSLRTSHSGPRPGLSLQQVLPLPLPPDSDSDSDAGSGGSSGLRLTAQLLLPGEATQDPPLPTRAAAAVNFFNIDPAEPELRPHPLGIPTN
- Assay type: cell membranes, HeLa, Membrane
- settings: read-out: IC50
experimental-endpoint: pIC50
Reminder that pIC50 is minus the log10 of a molar concentration.

[in] Kindly indicate its recorded pIC50. Item: C[C@@H](CO)NC(=O)[C@@H]1C=C2c3cccc4[nH]cc(c34)C[C@H]2N(C)C1 [ERGONOVINE]
[out] 8.49

[in] Kindly indicate its recorded pIC50. Item: Clc1ccc(COC(Cn2ccnc2)c2ccc(Cl)cc2Cl)cc1 (stereo not drawn) [ECONAZOLE]
[out] 4.96

[in] Kindly indicate its recorded pIC50. Item: CCN(CC)CCOc1ccc(/C(=C(/Cl)c2ccccc2)c2ccccc2)cc1 [ENCLOMIPHENE]
[out] 5.82
